Data credit: PubChem BioAssay AID770

- assay.explanation: HT29 colon tumor cell growth inhibition, primary screen, imaging, high content imaging, 24 h, CellTiter-Glo (AID 770);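 further: share of cells whose nuclear area falls below control median minus 1.5 SD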
- settings: HT29 cell number by imaging, measured here: percent cells with condensed nuclei, at 10 µM, stronger effect = higher value
Out of some 3,300 compounds screened, fewer than 10 were called active. A selection follows.
Note to self: values exactly at 4% are Met. So condensed nuclei at or above 4% is Met, below is Not met.

[
  {
    "compound": "COC(=O)c1n[nH]c2ccccc12",
    "class.assignment": "Met"
  },
  {
    "compound": "O=C1C2ON(c3ccccc3)C(c3cccnc3)C2C(=O)N1Cc1ccccc1 (stereo not given)",
    "class.assignment": "Not met"
  },
  {
    "compound": "CCOC(=O)COc1ccc(Oc2nc(C)cc(OC)n2)nn1",
    "class.assignment": "Met"
  },
  {
    "compound": "COc1cccc2c1C(=O)c1c(O)c3c(c(O)c1C2=O)C[C@@](O)(C(C)=O)C[C@@H]3O[C@H]1C[C@H](N)[C@H](O)[C@H](C)O1",
    "class.assignment": "Met"
  },
  {
    "compound": "c1ccc2c(c1)NC(c1ccncc1)n1c-2nc2ccccc21 (stereo not given)",
    "class.assignment": "Not met"
  },
  {
    "compound": "CCOC(=O)c1ccc(-n2c(=O)[nH]c3ccccc3c2=O)cc1",
    "class.assignment": "Met"
  },
  {
    "compound": "CCN(CC)c1ccc2cc(-c3nnc(-c4ccncc4)o3)c(=O)oc2c1",
    "class.assignment": "Not met"
  },
  {
    "compound": "CCc1cc(=O)oc2cc(C)c(CN3CCCC3)c(O)c12",
    "class.assignment": "Met"
  },
  {
    "compound": "CC(=O)N1CC=C2C(C#N)=C(N)C(C#N)(C#N)[C@H](c3ccoc3)[C@H]2C1",
    "class.assignment": "Not met"
  },
  {
    "compound": "COc1ccc(-c2onc(C)c2-c2ccccc2)c(O)c1",
    "class.assignment": "Met"
  }
]

====

- assay.explanation: HT29 colon tumor cell growth inhibition, primary screen, imaging, high content imaging, 24 h, CellTiter-Glo (AID 770);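 further: share of cells whose nuclear area falls below control median minus 1.5 SD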
- settings: HT29 cell number by imaging, measured here: percent cells with condensed nuclei, at 10 µM, stronger effect = higher value
Among all 3,300 compounds or so, fewer than 10 were called active. A selection follows.
Note to self: values exactly at 4% are label 1. So condensed nuclei at or above 4% is label 1, below is label 0.

[
  {
    "compound": "O=C(NCc1ccccc1)c1ccc(=O)[nH]n1",
    "class.assignment": "label 0"
  },
  {
    "compound": "COc1cc(-c2cc(C(F)(F)F)n3ncc(C(=O)O)c3n2)cc(OC)c1OC",
    "class.assignment": "label 0"
  },
  {
    "compound": "O=C(NCCOCCOCCNC(=O)c1cccnc1)c1cccnc1",
    "class.assignment": "label 0"
  },
  {
    "compound": "COc1cc(-c2nn3c(COc4ccccc4)nnc3s2)cc(OC)c1OC",
    "class.assignment": "label 1"
  },
  {
    "compound": "CC1(C)CC(=O)C2=C(C1)N(Cc1ccco1)C(=O)C2(NC(=O)c1cccnc1)C(F)(F)F (configuration not stated)",
    "class.assignment": "label 0"
  },
  {
    "compound": "N#CCSc1nc2c(cc1C#N)CCCCCC2",
    "class.assignment": "label 0"
  },
  {
    "compound": "CCOC(=O)C1CCN(c2nc3ccccc3nc2C(C#N)C(=O)OC(C)COC)CC1 (configuration not stated)",
    "class.assignment": "label 1"
  },
  {
    "compound": "N#CC1=C(SCC(=O)c2ccc(Cl)cc2)NC2=C(C(=O)CCC2)C1c1ccco1 (configuration not stated)",
    "class.assignment": "label 1"
  },
  {
    "compound": "CCOc1ccc(/C(O)=C2/C(=O)C(=O)N(CCN(CC)CC)C2c2ccco2)cc1 (configuration not stated)",
    "class.assignment": "label 0"
  },
  {
    "compound": "COc1ccc(N2CCN(c3oc(COc4ccc(Cl)cc4)nc3C#N)CC2)cc1",
    "class.assignment": "label 0"
  },
  {
    "compound": "Cc1ccc(N(CN2C(=O)NC(C)(C)C2=O)CN2C(=O)NC(C)(C)C2=O)cc1",
    "class.assignment": "label 0"
  }
]
